- Tested on: MOOVA (Monochoria)
- METHOD_NOTES: Postemergence weed control under flooded paddy conditions
- Type: in vivo, Monochoria vaginalis
- CONDITION_SET: rate 0.2500 kg/ha, postemergence weeds, 3-4 weeks after treatment
Quick list: Herbicidal rating MOOVA per entry.

MOLECULE: CCOC(=O)CN1C(=O)C(CC(=O)OC(C)C)SC1=Nc1cc(-n2c(=O)cc(C(F)(F)F)n(C)c2=O)c(F)cc1Cl (stereo not drawn) [Compound 55]
STUDY_SYSTEM: MOOVA (Monochoria)
Herbicidal rating MOOVA: 9.0
--
MOLECULE: Cn1c(C(F)(F)F)cc(=O)n(-c2cc(N=C3SCC(=O)N3CC(=O)OC(C)(C)C)c(Cl)cc2F)c1=O [Compound 43]
STUDY_SYSTEM: MOOVA (Monochoria)
Herbicidal rating MOOVA: 9.0
--
MOLECULE: CCOC(=O)CN1C(=O)C(CC(N)=O)S/C1=N/c1cc(-n2c(=O)cc(C(F)(F)F)n(C)c2=O)c(F)cc1Cl (stereo not drawn) [Compound 56]
STUDY_SYSTEM: MOOVA (Monochoria)
Herbicidal rating MOOVA: 9.0
--
MOLECULE: CCOC(=O)CN1C(=O)CS(=O)(=O)C1=Nc1cc(-n2c(=O)cc(C(F)(F)F)n(C)c2=O)c(F)cc1Cl [Compound 46]
STUDY_SYSTEM: MOOVA (Monochoria)
Herbicidal rating MOOVA: 7.0
--
MOLECULE: CCOC(=O)CN1C(=O)C(CC(=O)OC)S/C1=N/c1cc(-n2c(=O)cc(C(F)(F)F)n(C)c2=O)c(F)cc1Cl (stereo not drawn) [Compound 54]
STUDY_SYSTEM: MOOVA (Monochoria)
Herbicidal rating MOOVA: 6.0
--
MOLECULE: CN1C(=O)CS/C1=N/c1cc(-n2c(=O)cc(C(F)(F)F)n(C)c2=O)c(F)cc1Cl [Compound 7]
STUDY_SYSTEM: MOOVA (Monochoria)
Herbicidal rating MOOVA: 9.0

====

compounds and their reported GALAP rating
- System: GALAP (Galium)
- METHOD_NOTES: Preemergence herbicidal evaluation
- Assay type: in vivo, Galium aparine
- CONDITION_SET: preemergence, 0.1250 kg/ha, rated 4-5 weeks after treatment, 0-9 scale

COMPOUND: CCOC(=O)CN1C(=O)C(CC(=O)NOC)SC1=Nc1cc(-n2c(=O)cc(C(F)(F)F)n(C)c2=O)c(F)cc1Cl (stereo not shown)
GALAP rating: 0.0

COMPOUND: CC(C)OC(=O)CC1SC(=Nc2cc(-n3c(=O)cc(C(F)(F)F)n(C)c3=O)c(F)cc2Cl)N(C)C1=O (stereo not shown)
GALAP rating: 4.5

COMPOUND: C=CCN1C(=O)C(CC(=O)NS(=O)(=O)CC)SC1=Nc1cc(-n2c(=O)cc(C(F)(F)F)n(C)c2=O)c(F)cc1Cl (stereo not shown)
GALAP rating: 0.0

COMPOUND: C#CCOC(=O)CC1SC(=Nc2cc(-n3c(=O)cc(C(F)(F)F)n(C)c3=O)c(F)cc2Cl)N(C)C1=O (stereo not shown)
GALAP rating: 3.0

====

- Tested on: SETVI (Foxtail, Green)
- METHOD_NOTES: Preemergence herbicidal evaluation
- Format: in vivo, Setaria viridis
- CONDITION_SET: rate 0.0313 kg/ha; rated 4-5 weeks after treatment

COMPOUND: CN(C)N1C(=O)CSC1=Nc1cc(-n2c(=O)cc(C(F)(F)F)n(C)c2=O)c(F)cc1Cl [Compound 23]
SETVI preemergence herbicidal rating: 1.0
//
COMPOUND: CCOC(=O)CN1C(=O)CO/C1=N/c1cc(-n2c(=O)cc(C(F)(F)F)n(C)c2=O)c(F)cc1Cl [Compound 22]
SETVI preemergence herbicidal rating: 7.0
//
COMPOUND: CCOC(=O)CN1C(=O)C(CC(=O)O)S/C1=N/c1cc(-n2c(=O)cc(C(F)(F)F)n(C)c2=O)c(F)cc1Cl (stereo not shown) [Compound 16]
SETVI preemergence herbicidal rating: 1.0
//
COMPOUND: CN1C(=O)CS/C1=N/c1cc(-n2c(=O)cc(C(F)(F)F)n(C)c2=O)c(F)cc1Cl [Compound 7]
SETVI preemergence herbicidal rating: 9.0

====

- Tested on: SETVI (Foxtail, Green)
- METHOD_NOTES: Preemergence herbicidal evaluation
- Format: in vivo, Setaria viridis
- CONDITION_SET: preemergence, 0.0625 kg/ha, rated 4-5 weeks after treatment, 0-9 scale
- Source text: Results of herbicide evaluation are expressed on a rating scale (0-9). The scale is based upon a visual observation of plant stand, vigor, malformation, size, chlorosis and overall plant appearance as compared with a control. […] The compounds evaluated are reported by compound number given in Example 37.

COMPOUND: C=CCN1C(=O)C(CC(=O)NS(C)(=O)=O)SC1=Nc1cc(-n2c(=O)cc(C(F)(F)F)n(C)c2=O)c(F)cc1Cl (centres unmarked)
SETVI rating: 1.0
--
COMPOUND: CN1C(=O)C(CC(=O)OCCF)SC1=Nc1cc(-n2c(=O)cc(C(F)(F)F)n(C)c2=O)c(F)cc1Cl (centres unmarked)
SETVI rating: 0.0
--
COMPOUND: CC(C)OC(=O)CC1SC(=Nc2cc(-n3c(=O)cc(C(F)(F)F)n(C)c3=O)c(F)cc2Cl)N(C)C1=O (centres unmarked)
SETVI rating: 1.5
--
COMPOUND: C=CCN1C(=O)C(CC(=O)NS(=O)(=O)CC)SC1=Nc1cc(-n2c(=O)cc(C(F)(F)F)n(C)c2=O)c(F)cc1Cl (centres unmarked)
SETVI rating: 0.0
--
COMPOUND: C=CCN1C(=O)C(CC(=O)OCCF)SC1=Nc1cc(-n2c(=O)cc(C(F)(F)F)n(C)c2=O)c(F)cc1Cl (centres unmarked)
SETVI rating: 4.0

====

- System: ZEAMX (Corn, Field)
- METHOD_NOTES: Preemergence herbicidal evaluation
- Assay type: in vivo, Zea mays
- CONDITION_SET: rate 0.2500 kg/ha; rated 4-5 weeks after treatment
READOUT_KIND: Preemergence herbicidal rating ZEAMX

COMPOUND: C#CCOC(=O)CN1C(=O)CSC1=Nc1cc(-n2c(=O)cc(C(F)(F)F)n(C)c2=O)c(F)cc1Cl [Compound 115]
STUDY_SYSTEM: ZEAMX (Corn, Field)
READOUT_KIND: Preemergence herbicidal rating ZEAMX
TEST_RESULT: 2.0
//
COMPOUND: CCOC(=O)CN1C(=O)CS(=O)(=O)C1=Nc1cc(-n2c(=O)cc(C(F)(F)F)n(C)c2=O)c(F)cc1Cl [Compound 46]
STUDY_SYSTEM: ZEAMX (Corn, Field)
READOUT_KIND: Preemergence herbicidal rating ZEAMX
TEST_RESULT: 1.0
//
COMPOUND: COC(=O)COC(=O)CN1C(=O)CSC1=Nc1cc(-n2c(=O)cc(C(F)(F)F)n(C)c2=O)c(F)cc1Cl [Compound 108]
STUDY_SYSTEM: ZEAMX (Corn, Field)
READOUT_KIND: Preemergence herbicidal rating ZEAMX
TEST_RESULT: 2.0
//
COMPOUND: CCOC(=O)CN1C(=O)C(CCO)S/C1=N/c1cc(-n2c(=O)cc(C(F)(F)F)n(C)c2=O)c(F)cc1Cl (stereo not drawn) [Compound 49]
STUDY_SYSTEM: ZEAMX (Corn, Field)
READOUT_KIND: Preemergence herbicidal rating ZEAMX
TEST_RESULT: 3.0
//
COMPOUND: C=CCN1C(=O)C(CC(=O)OC)SC1=Nc1cc(-n2c(=O)cc(C(F)(F)F)n(C)c2=O)c(F)cc1Cl (stereo not drawn) [Compound 64]
STUDY_SYSTEM: ZEAMX (Corn, Field)
READOUT_KIND: Preemergence herbicidal rating ZEAMX
TEST_RESULT: 7.0
//
COMPOUND: C#CCOC(=O)CC1SC(=Nc2cc(-n3c(=O)cc(C(F)(F)F)n(C)c3=O)c(F)cc2Cl)N(CC=C)C1=O (stereo not drawn) [Compound 67]
STUDY_SYSTEM: ZEAMX (Corn, Field)
READOUT_KIND: Preemergence herbicidal rating ZEAMX
TEST_RESULT: 1.0
//
COMPOUND: CCOC(=O)CN1C(=O)C(CC(=O)O)SC1=Nc1cc(-n2c(=O)cc(C(F)(F)F)n(C)c2=O)c(Cl)cc1Cl (stereo not drawn) [Compound 33]
STUDY_SYSTEM: ZEAMX (Corn, Field)
READOUT_KIND: Preemergence herbicidal rating ZEAMX
TEST_RESULT: 0.0
//
COMPOUND: CCOC(=O)CN1C(=O)C(Cc2ccccc2OC)SC1=Nc1cc(-n2c(=O)cc(C(F)(F)F)n(C)c2=O)c(F)cc1Cl (stereo not drawn) [Compound 37]
STUDY_SYSTEM: ZEAMX (Corn, Field)
READOUT_KIND: Preemergence herbicidal rating ZEAMX
TEST_RESULT: 0.0
//
COMPOUND: CN1C(=O)C(CC(=O)O)SC1=Nc1cc(-n2c(=O)cc(C(F)(F)F)n(C)c2=O)c(F)cc1Cl (stereo not drawn) [Compound 63]
STUDY_SYSTEM: ZEAMX (Corn, Field)
READOUT_KIND: Preemergence herbicidal rating ZEAMX
TEST_RESULT: 7.0

# credit: patent US20020137929A1
